# Test system: P388 leukemia ip, CD2F1 mice, survival T/C
# method.notes: NCI In Vivo Anticancer Drug Screen. Data for tumor model P388 Leukemia (intraperitoneal) in CD2F1 (CDF1) mice
# settings: endpoint: median survival time; dose: 100.0 mg/kg/injection; schedule: Q01DX009 (ip); vehicle: saline with Tween-80
Inconclusive results and toxic doses are left out. How the source made its calls: active means survival T/C of 150% or more; inactive means T/C below 125% in these data.
Labels: active, inactive

>  <molecule>
CC(C)(C)N=C(CCC(C#N)(C#N)CCC(=NC(C)(C)C)Nc1c(Cl)cccc1Cl)Nc1c(Cl)cccc1Cl

>  <class.label>
inactive

$$$$
>  <molecule>
Brc1ccc(-c2csc(Nc3nc(-c4ccc(Br)cc4)cs3)n2)cc1

>  <class.label>
inactive

$$$$
>  <molecule>
CC(=NC(C)C)Nc1ccccc1

>  <class.label>
inactive

$$$$
>  <molecule>
CCn1c2ccccc2c2cc(N=Nc3ccc4c(c3)c3ccccc3n4CC)ccc21

>  <class.label>
inactive

$$$$
>  <molecule>
N#CCC1CCCC1=O (stereo unspecified)

>  <class.label>
inactive

$$$$
>  <molecule>
COC1/C=C/OC2(C)Oc3c(C)c(O)c4c(c3C2=O)C(=O)C(CO)=C(NC(=O)/C(C)=C\C=C\C(C)C(O)C(C)C(O)C(C)C(OC(C)=O)C1C)C4=O (stereo unspecified)

>  <class.label>
inactive

$$$$
>  <molecule>
COC(=O)c1nc2c(n(C)/c1=N/C(=O)Nc1ccccc1)CCCC2

>  <class.label>
active

$$$$
>  <molecule>
OC1CCCSc2ccccc21 (stereo unspecified)

>  <class.label>
inactive

$$$$
>  <molecule>
NC(=S)N/N=C/c1ccc2c(c1)OCO2

>  <class.label>
inactive

$$$$
>  <molecule>
CC(=O)Nc1ccc(C(C)=O)cc1

>  <class.label>
inactive

$$$$
>  <molecule>
Cc1nc2[nH][nH]c(=O)c2nc1C

>  <class.label>
inactive

$$$$
